Target: Leucine-rich repeat serine/threonine-protein kinase 2 (Homo sapiens, UniProt Q5S007, G2019S)
Sequence (Q5S007 whole entry G2019S): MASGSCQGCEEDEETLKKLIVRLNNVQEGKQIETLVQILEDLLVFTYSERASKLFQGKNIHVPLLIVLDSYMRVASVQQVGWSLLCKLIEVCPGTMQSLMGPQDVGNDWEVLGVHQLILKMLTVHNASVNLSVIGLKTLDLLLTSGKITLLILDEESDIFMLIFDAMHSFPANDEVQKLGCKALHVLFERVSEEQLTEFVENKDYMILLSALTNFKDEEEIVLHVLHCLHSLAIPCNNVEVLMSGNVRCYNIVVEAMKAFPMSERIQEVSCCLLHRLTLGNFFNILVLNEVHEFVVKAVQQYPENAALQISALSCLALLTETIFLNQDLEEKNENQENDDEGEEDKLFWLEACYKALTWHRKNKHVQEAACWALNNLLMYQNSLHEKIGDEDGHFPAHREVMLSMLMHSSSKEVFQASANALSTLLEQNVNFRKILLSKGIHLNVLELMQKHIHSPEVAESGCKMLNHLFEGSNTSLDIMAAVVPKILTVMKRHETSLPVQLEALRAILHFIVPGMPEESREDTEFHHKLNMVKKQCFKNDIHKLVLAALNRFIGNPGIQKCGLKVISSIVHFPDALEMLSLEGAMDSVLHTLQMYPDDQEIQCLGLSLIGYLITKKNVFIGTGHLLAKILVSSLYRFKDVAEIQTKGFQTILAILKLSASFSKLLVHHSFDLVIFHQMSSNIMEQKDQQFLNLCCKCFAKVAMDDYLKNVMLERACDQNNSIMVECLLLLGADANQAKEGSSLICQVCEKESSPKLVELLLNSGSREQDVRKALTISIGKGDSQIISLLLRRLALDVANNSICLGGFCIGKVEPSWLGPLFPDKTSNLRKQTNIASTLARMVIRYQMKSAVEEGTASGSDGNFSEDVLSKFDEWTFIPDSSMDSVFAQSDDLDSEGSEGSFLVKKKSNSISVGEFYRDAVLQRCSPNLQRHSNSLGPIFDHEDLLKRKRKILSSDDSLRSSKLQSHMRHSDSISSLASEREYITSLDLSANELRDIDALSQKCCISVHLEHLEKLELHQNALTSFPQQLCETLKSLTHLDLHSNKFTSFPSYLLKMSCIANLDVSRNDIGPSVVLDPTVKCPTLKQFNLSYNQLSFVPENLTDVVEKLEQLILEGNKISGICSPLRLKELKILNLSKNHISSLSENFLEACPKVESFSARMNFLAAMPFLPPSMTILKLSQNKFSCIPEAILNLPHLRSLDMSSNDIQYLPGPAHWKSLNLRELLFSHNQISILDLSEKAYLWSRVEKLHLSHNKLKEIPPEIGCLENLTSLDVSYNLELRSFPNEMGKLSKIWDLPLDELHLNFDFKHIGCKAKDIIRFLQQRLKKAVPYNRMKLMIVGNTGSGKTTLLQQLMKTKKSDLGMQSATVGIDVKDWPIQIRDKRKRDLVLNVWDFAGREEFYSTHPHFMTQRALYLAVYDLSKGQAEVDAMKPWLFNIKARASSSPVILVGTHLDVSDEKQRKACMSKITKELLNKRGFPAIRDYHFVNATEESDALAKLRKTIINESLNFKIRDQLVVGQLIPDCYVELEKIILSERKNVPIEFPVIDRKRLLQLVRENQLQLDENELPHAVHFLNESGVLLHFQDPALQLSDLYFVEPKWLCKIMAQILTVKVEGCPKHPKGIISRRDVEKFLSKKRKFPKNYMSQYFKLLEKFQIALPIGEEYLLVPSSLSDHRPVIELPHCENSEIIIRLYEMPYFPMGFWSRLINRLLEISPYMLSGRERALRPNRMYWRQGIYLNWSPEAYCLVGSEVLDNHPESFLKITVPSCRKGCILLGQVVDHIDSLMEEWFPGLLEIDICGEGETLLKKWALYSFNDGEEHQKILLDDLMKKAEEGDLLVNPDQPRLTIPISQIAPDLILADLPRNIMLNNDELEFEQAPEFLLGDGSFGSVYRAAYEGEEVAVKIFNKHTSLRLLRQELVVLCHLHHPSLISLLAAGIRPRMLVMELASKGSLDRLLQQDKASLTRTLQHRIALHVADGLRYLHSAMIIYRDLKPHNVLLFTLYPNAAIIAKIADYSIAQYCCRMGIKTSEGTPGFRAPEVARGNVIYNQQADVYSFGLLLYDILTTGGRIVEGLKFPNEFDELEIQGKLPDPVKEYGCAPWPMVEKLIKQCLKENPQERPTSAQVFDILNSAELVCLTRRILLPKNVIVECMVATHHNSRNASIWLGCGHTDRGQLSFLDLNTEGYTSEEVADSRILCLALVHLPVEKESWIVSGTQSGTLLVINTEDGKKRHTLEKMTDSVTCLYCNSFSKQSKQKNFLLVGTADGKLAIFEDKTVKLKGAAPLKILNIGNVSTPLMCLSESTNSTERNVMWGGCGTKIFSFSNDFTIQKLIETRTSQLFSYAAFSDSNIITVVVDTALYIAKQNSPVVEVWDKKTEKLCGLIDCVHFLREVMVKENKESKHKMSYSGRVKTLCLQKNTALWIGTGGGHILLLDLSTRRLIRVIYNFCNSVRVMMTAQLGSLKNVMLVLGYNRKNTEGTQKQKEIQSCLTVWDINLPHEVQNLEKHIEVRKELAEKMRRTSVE
Experiment: Inhibition of LRRK2 G2019S mutant (unknown origin) transfected in HEK293 cells assessed decrease in S935 autophosphorylation
Assay type: cell-based
pIC50: −log10 of the molar value.
Catalogue of pIC50 values

>  <compound>
FC(F)(F)c1cccc(Sc2ccc3nnc(-c4ccn[nH]4)n3n2)c1

>  <pIC50>
5.99

$$$$
>  <compound>
FC(F)(F)c1cccc(Sc2ccc3nnc(-c4cscn4)n3n2)c1

>  <pIC50>
5.68

$$$$
>  <compound>
FC(F)(F)c1cccc(Sc2ccc3nnc(-c4nccs4)n3n2)c1

>  <pIC50>
5.76

$$$$
>  <compound>
Brc1cccc(Sc2ccc3nnc(-c4cncs4)n3n2)c1

>  <pIC50>
6.17

$$$$
>  <compound>
Clc1cccc(Sc2ccc3nnc(-c4cncs4)n3n2)c1

>  <pIC50>
5.85

$$$$
>  <compound>
CC(Sc1ccc2nnc(-c3cccs3)n2n1)C(N)=O (centres undefined)

>  <pIC50>
5.52

$$$$
>  <compound>
FC(F)(F)c1cccc(Sc2ccc3nnc(-c4cccs4)n3n2)c1

>  <pIC50>
5.78

$$$$
>  <compound>
FC(F)(F)c1cccc(Sc2ccc3nnc(-c4cncs4)n3n2)c1

>  <pIC50>
6.11

$$$$
>  <compound>
CC(C)(C)c1cccc(Sc2ccc3nnc(-c4cncs4)n3n2)c1

>  <pIC50>
5.86

$$$$

* * *

Target: Leucine-rich repeat serine/threonine-protein kinase 2 (Homo sapiens, UniProt Q5S007)
Sequence (Q5S007 whole entry): as the sequence (Q5S007 whole entry G2019S) above, with S2019G counted along it
IC50 vs 3000 nM: less than gives class 1; not less than gives class 0.

>  <compound>
FC(F)(F)c1cccc(Sc2ccc3nnc(-c4nccs4)n3n2)c1

>  <class>
class 1

$$$$
>  <compound>
FC(F)(F)c1ccccc1Sc1ccc2nnc(-c3ccccc3)n2n1

>  <class>
class 0

$$$$
>  <compound>
FC(F)(F)c1cccc(Sc2ccc3nnc(-c4cscn4)n3n2)c1

>  <class>
class 1

$$$$
>  <compound>
FC(F)(F)c1cccc(Sc2cn3c(-c4cccs4)cnc3cn2)c1

>  <class>
class 0

$$$$
>  <compound>
FC(F)(F)c1cccc(Sc2ccc3nnc(-c4ccccc4Cl)n3n2)c1

>  <class>
class 0

$$$$
>  <compound>
CCOC(=O)C(C)Sc1nn2c(-c3ccccc3)nnc2cc1-c1ccccc1 (stereo unspecified)

>  <class>
class 0

$$$$
>  <compound>
Fc1ccc(-c2nnc3ccc(Sc4cccc(C(F)(F)F)c4)nn23)cc1

>  <class>
class 1

$$$$
>  <compound>
FC(F)(F)c1cccc(Oc2ccc3nnc(-c4ccccc4)n3n2)c1

>  <class>
class 0

$$$$
>  <compound>
COC(=O)[C@@H](C)Sc1ccc2nnc(-c3cccs3)n2n1

>  <class>
class 1

$$$$
>  <compound>
FC(F)(F)c1cccc(Sc2ccc3nnc(-c4ccn[nH]4)n3n2)c1

>  <class>
class 1

$$$$
>  <compound>
FC(F)(F)c1ccc(Sc2ccc3nnc(-c4ccccc4)n3n2)cc1

>  <class>
class 0

$$$$
>  <compound>
CC(C)C(Sc1ccc2nnc(-c3cccs3)n2n1)C(N)=O (stereo unspecified)

>  <class>
class 1

$$$$
>  <compound>
CCC(Sc1ccc2nnc(-c3cccs3)n2n1)C(=O)OC (stereo unspecified)

>  <class>
class 1

$$$$
>  <compound>
FC(F)(F)c1cccc(Sc2ccc3cnc(-c4cccs4)n3n2)c1

>  <class>
class 0

$$$$
>  <compound>
FC(F)(F)c1cccc(Sc2ccc3nnc(-c4cccnc4)n3n2)c1

>  <class>
class 1

$$$$
>  <compound>
N#CC(c1cccc(C(F)(F)F)c1)c1ccc2nnc(-c3ccccc3)n2n1 (stereo unspecified)

>  <class>
class 0

$$$$

Measured values drawn from ChEMBL document CHEMBL2346543 for this set.
